# TARGET OR TEST SYSTEM: pro-heparanase (H60) (Homo sapiens, UniProt Q9Y251, K307R)
# Sequence (Q9Y251 36-543 K307R): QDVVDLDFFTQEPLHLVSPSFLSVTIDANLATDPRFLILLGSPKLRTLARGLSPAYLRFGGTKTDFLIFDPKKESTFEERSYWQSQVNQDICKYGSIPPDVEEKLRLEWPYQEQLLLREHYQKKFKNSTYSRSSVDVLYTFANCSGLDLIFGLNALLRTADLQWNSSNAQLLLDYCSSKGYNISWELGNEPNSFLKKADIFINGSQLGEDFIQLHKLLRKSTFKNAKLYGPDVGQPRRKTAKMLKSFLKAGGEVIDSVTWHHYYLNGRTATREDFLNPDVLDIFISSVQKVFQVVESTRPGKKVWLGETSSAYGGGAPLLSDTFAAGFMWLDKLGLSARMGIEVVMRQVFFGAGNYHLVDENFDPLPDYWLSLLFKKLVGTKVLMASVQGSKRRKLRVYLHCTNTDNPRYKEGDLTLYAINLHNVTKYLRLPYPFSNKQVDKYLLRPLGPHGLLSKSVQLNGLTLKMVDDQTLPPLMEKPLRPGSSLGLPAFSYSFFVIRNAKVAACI
# ASSAY EXPLANATION: Pro-heparanase activation in a cell-based assay (293 cells, DMB assay)
# CONDITIONS: inhibition of pro-heparanase activation; Table 11, heparin-binding compounds
// classify: if (IC50 < 7 µM) Satisfied else Not satisfied

Worked set:
COMPOUND | ANSWER LABEL
CN(C)c1ccc(/C=C/c2sc3ccc4ccccc4c3[n+]2C)cc1 [Compound 117] | Not satisfied
CCC(/C=C1\Sc2ccc3ccccc3c2N1CC)=C\c1sc2ccc(-c3ccccc3)cc2[n+]1CC [Compound 120] | Satisfied
CCN1/C(=C/C=C/c2sc3ccc(OC)cc3[n+]2CC)Sc2ccc3ccccc3c21 [Compound 119] | Satisfied
Cc1cc(N(C)C)cc2[s+]c3cc(N(C)C)cc(C)c3nc12 [Compound 112] | Satisfied
C=CCn1c(=O)/c(=C\C=C2/Nc3c(sc(C)c3C)N2CC)s/c1=C\c1sc(-c2ccccc2)c(-c2ccccc2)[n+]1CC [Compound 113] | Satisfied

Would you kindly look at the next entry?
Please indicate whether the reported IC50 of CCN1C=C/C(=C/C=c2/s/c(=C\c3sc(-c4ccccc4)c(-c4ccccc4)[n+]3CC)n(CC)c2=O)c2ccccc21 [Compound 115] is strictly below 7 µM. Not satisfied

The measurements presented in this section are drawn from patent US20050042213A1.
